Target: Abl (Homo sapiens, UniProt P00519)
Experiment: In vitro kinase assay (32P peptide phosphorylation), WT Abl
Format: biochemical
Conditions: Table 1a; read-out: IC50 WT Abl
measurement.name: IC50

| molecule | target.desc | IC50 |
| --- | --- | --- |
| Nc1ncnc2c1c(-c1ccc(NC(=O)Nc3cccc(C(F)(F)F)c3)cc1)nn2[C@H]1CCN(C(=O)Nc2cccc(C(F)(F)F)c2)C1 [AD71c] | Abl (Homo sapiens, UniProt P00519) | > 5 µM |
| Nc1ncnc2c1c(-c1ccc(NC(=O)Nc3cccc(C(F)(F)F)c3)cc1)nn2[C@@H]1CCN(C(=O)Nc2cccc(C(F)(F)F)c2)C1 [AD73c] | Abl (Homo sapiens, UniProt P00519) | > 5 µM |
| Cn1nc(Cc2cccc(NC(=O)Nc3cccc(C(F)(F)F)c3)c2)c2c(N)ncnc21 | Abl (Homo sapiens, UniProt P00519) | 1 to 5 µM |

Pending molecule:
Reported IC50 ( `CC(C)n1nc(Cc2cccc(NC(=O)Nc3cccc(C(F)(F)F)c3)c2)c2c(N)ncnc21` ) = 1 to 5 µM

----------
Target: c-Src (Gallus gallus, UniProt P00523)
Experiment: In vitro kinase assay (32P peptide phosphorylation), WT Src
Type: biochemical
Details: unphosphorylated kinase domain, 100 mM ATP; read-out: IC50 for c-Src
measurement.name: IC50 (µM)
Give a bare numeral; the unit µM is implied.

| smiles.entry | unit.descriptor | IC50 |
| --- | --- | --- |
| CC(C)n1nc(-c2ccc(NC(=O)Nc3cccc(C(F)(F)F)c3)cc2)c2c(N)ncnc21 | µM | 0.025 |

As a next step, examine the compound that follows.
Sure, the documented IC50 for `CC(C)(C)n1nc(Cc2cccc(NC(=O)Nc3cccc(C(F)(F)F)c3)c2)c2c(N)ncnc21` is 0.48

----------
Target: T315A Abl (Homo sapiens, UniProt P00519, T315A)
Sequence (P00519 242-493 T315A limits assumed): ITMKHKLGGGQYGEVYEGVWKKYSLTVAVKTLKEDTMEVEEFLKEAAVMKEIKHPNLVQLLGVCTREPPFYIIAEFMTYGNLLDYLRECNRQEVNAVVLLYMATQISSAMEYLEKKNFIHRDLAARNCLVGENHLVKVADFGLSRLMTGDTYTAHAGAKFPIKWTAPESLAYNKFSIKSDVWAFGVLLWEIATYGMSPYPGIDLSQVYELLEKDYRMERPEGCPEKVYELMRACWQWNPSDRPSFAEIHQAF
Assay: In vitro kinase assay, T315A Abl
Type: biochemical
Conditions: Table 1b
Experimental: Kinase reactions were initiated by the addition of […] cold ATP supplemented with 5 mCi γ^32P ATP and allowed to proceed at room temperature (RT). […] The sheets were washed five times in buffer, dried, and transferred radioactivity was measured by phosphorimaging using a TyphoonTM scanner (Molecular Dynamics). Radioactive counts were quantified using ImageQuantTM software, and titration data were fit to a sigmoidal dose response to derive IC50 values using the Prism® software package. […]
measurement.name: IC50

| smiles.entry | IC50 |
| --- | --- |
| CC(C)n1nc(-c2ccc(NC(=O)Nc3cccc(C(F)(F)F)c3)cc2)c2c(NC(=O)C3CCCC3)ncnc21 | < 1 µM |
| CC(C)n1nc(-c2ccc(NC(=O)Nc3cccc(C(F)(F)F)c3)cc2)c2c(NC(=O)c3ccc(C(C)(C)C)cc3)ncnc21 | > 5 µM |

Here is another compound to look at.
Memo: `CC(C)n1nc(-c2ccc(NC(=O)Nc3cccc(C(F)(F)F)c3)cc2)c2c(NC(=O)C3CC3)ncnc21` , reported IC50: < 1 µM

----------
Molecular target: T338G Src (Gallus gallus, UniProt P00523, T338G)
Assay: In vitro kinase assay, T338G Src
Format: biochemical
Settings: Table 1a
pIC50: −log10 of the molar value.
measurement.name: pIC50

| smiles.entry | reported.value |
| --- | --- |
| Nc1ncnc2c1c(Cc1cccc(NC(=O)Nc3cccc(C(F)(F)F)c3)c1)nn2Cc1ccccc1 | 5.30 to 6.00 |
| Nc1ncnc2c1c(Cc1cccc(NC(=O)c3cccc(C(F)(F)F)c3)c1)nn2Cc1ccccc1 | 5.30 to 6.00 |
| Nc1ncnc2c1c(Cc1cccc(NC(=O)c3cccc(C(F)(F)F)c3)c1)nn2CC1CC1 | > 6.00 |
| Cn1nc(Cc2cccc(NC(=O)Nc3cccc(C(F)(F)F)c3)c2)c2c(N)ncnc21 | > 6.00 |
| Nc1ncnc2c1c(Cc1cccc(NC(=O)Nc3cccc(C(F)(F)F)c3)c1)nn2C1CCCC1 | > 6.00 |

Would you kindly look at the next entry?
Input `Cn1nc(Cc2ccc(NC(=O)Nc3cccc(C(F)(F)F)c3)cc2)c2c(N)ncnc21` . Output pIC50: 5.30 to 6.00

----------
Target: c-Src (Gallus gallus)
Test: In vitro kinase assay (32P peptide phosphorylation), WT Src
Format: biochemical
Conditions: Table 1a; read-out: IC50 WT Src
pIC50: −log10 of the molar value.
measurement.name: pIC50

Worked examples, 5 molecules total:
| smiles.entry | reported.value |
| --- | --- |
| Nc1ncnc2c1c(Cc1cccc(NC(=O)Nc3cccc(C(F)(F)F)c3)c1)nn2C1CCCC1 | > 6.00 |
| Cn1nc(Cc2cccc(NC(=O)c3cccc(C(F)(F)F)c3)c2)c2c(N)ncnc21 | < 5.30 |
| CC(C)n1nc(Cc2cccc(NC(=O)c3cccc(C(F)(F)F)c3)c2)c2c(N)ncnc21 | < 5.30 |
| Cn1nc(Cc2ccc(NC(=O)c3cccc(C(F)(F)F)c3)cc2)c2c(N)ncnc21 | 5.30 to 6.00 |
| CC(C)n1nc(Cc2cccc(NC(=O)Nc3cccc(C(F)(F)F)c3)c2)c2c(N)ncnc21 | 5.30 to 6.00 |

Query `Nc1ncnc2c1c(Cc1cccc(NC(=O)c3cccc(C(F)(F)F)c3)c1)nn2C1CCCC1` yields pIC50 of > 6.00

Looking up `CC(C)(C)n1nc(Cc2cccc(NC(=O)c3cccc(C(F)(F)F)c3)c2)c2c(N)ncnc21` , I found its pIC50 recorded as 5.30 to 6.00

The molecule listed as `CC(C)(C)n1nc(Cc2cccc(NC(=O)Nc3cccc(C(F)(F)F)c3)c2)c2c(N)ncnc21` shows pIC50 equal to > 6.00

----------
IC50 by entry:
Biological target: UniProt P00523
Test: In vitro kinase assay (32P peptide phosphorylation), WT Src
Type: biochemical
Conditions: Table 1a; read-out: IC50 WT Src

Record for `Nc1ncnc2c1c(Cc1cccc(NC(=O)Nc3cccc(C(F)(F)F)c3)c1)nn2CC1CC1` under target or system UniProt P00523: IC50 reported as < 1 µM

IC50 of Nc1ncnc2c1c(-c1ccc(NC(=O)Nc3cccc(C(F)(F)F)c3)cc1)nn2[C@H]1CCN(C(=O)Nc2cccc(C(F)(F)F)c2)C1 [AD71c] , assay on UniProt P00523, is 1 to 5 µM

----------
Biological target: T338G Src (Gallus gallus, UniProt P00523, T338G)
Assay: In vitro kinase assay, T338G Src
Type: biochemical
Settings: Table 1a
pIC50: −log10 of the molar value.
measurement.name: pIC50

| compound | reported.value |
| --- | --- |
| Cn1nc(Cc2ccc(NC(=O)c3cccc(C(F)(F)F)c3)cc2)c2c(N)ncnc21 [AD7] | < 5.30 |

Record Cn1nc(Cc2cccc(NC(=O)c3cccc(C(F)(F)F)c3)c2)c2c(N)ncnc21 [AD15] , field pIC50: 5.30 to 6.00

The recorded pIC50 for CC(C)(C)n1nc(Cc2cccc(NC(=O)c3cccc(C(F)(F)F)c3)c2)c2c(N)ncnc21 [AD25] is > 6.00

// Nc1ncnc2c1c(Cc1cccc(NC(=O)Nc3cccc(C(F)(F)F)c3)c1)nn2CC1CC1 [BB14] : pIC50 value = > 6.00

Record summary for Nc1ncnc2c1c(Cc1cccc(NC(=O)c3cccc(C(F)(F)F)c3)c1)nn2C1CCCC1 [BB9] : reported pIC50 = > 6.00

Recorded pIC50 (compound CC(C)(C)n1nc(Cc2cccc(NC(=O)Nc3cccc(C(F)(F)F)c3)c2)c2c(N)ncnc21 [AD26] ): > 6.00

// pIC50 lookup, compound = CC(C)n1nc(Cc2cccc(NC(=O)Nc3cccc(C(F)(F)F)c3)c2)c2c(N)ncnc21 [AD36] , result: > 6.00

For CC(C)n1nc(Cc2cccc(NC(=O)c3cccc(C(F)(F)F)c3)c2)c2c(N)ncnc21 [AD35] the compound record lists pIC50 as 5.30 to 6.00

----------
Target: T315A Abl (Homo sapiens, UniProt P00519, T315A)
Test: In vitro kinase assay, T315A Abl
Assay type: biochemical
Settings: Table 1a
measurement.name: IC50

| smiles.entry | IC50 |
| --- | --- |
| CC(C)n1nc(Cc2cccc(NC(=O)c3cccc(C(F)(F)F)c3)c2)c2c(N)ncnc21 | < 1000 nM |

Reported IC50 ( `Nc1ncnc2c1c(Cc1cccc(NC(=O)c3cccc(C(F)(F)F)c3)c1)nn2C1CCCC1` ) = 1000 to 5000 nM

Summary for this molecule, `Cn1nc(Cc2cccc(NC(=O)Nc3cccc(C(F)(F)F)c3)c2)c2c(N)ncnc21` : IC50 is 1000 to 5000 nM

Please fill in: IC50 reported for `Cn1nc(Cc2ccc(NC(=O)c3cccc(C(F)(F)F)c3)cc2)c2c(N)ncnc21` = 1000 to 5000 nM

The molecule identified as `CC(C)n1nc(Cc2cccc(NC(=O)Nc3cccc(C(F)(F)F)c3)c2)c2c(N)ncnc21` registered its IC50 at < 1000 nM

Noted for `Nc1ncnc2c1c(Cc1cccc(NC(=O)Nc3cccc(C(F)(F)F)c3)c1)nn2Cc1ccccc1` : its IC50 reads < 1000 nM

Lab note: measured IC50 of `Cn1nc(Cc2ccc(NC(=O)Nc3cccc(C(F)(F)F)c3)cc2)c2c(N)ncnc21` was 1000 to 5000 nM

Reported IC50 for `Nc1ncnc2c1c(Cc1cccc(NC(=O)Nc3cccc(C(F)(F)F)c3)c1)nn2CC1CC1` was < 1000 nM

# credit: patent US8697709B2
